Can you tell me log10 of Kd for the items I'm about to list?
# Experimental Target: CD3
# Sequence (P07766 23-126): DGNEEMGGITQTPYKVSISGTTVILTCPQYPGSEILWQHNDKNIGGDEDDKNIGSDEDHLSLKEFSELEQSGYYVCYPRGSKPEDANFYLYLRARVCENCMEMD
# Assay Notes: Octet, crude lysate
Answers are given as log10 of Kd in nM.

log10 of Kd measured on AC3416 (bispecific antibody, V domains shown) VH: EVQLLESGGGIVQPGGSLKLSCAASGFTFNTYAMNWVRQAPGKGLEWVARIRSKYNNYATTYADSVKDRFTISRDDSKNTVYLQMNNLKTEDTAVYYCVRHENFGNSYVSWFAHWGQGTLVTVSS VL: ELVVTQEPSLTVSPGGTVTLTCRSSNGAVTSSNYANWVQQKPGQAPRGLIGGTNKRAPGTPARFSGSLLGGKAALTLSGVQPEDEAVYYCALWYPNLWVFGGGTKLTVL = 1.25

Lab note: measured log10 of Kd of AC3400 (bispecific antibody, V domains shown) VH: EVQLLESGGGIVQPGGSLKLSCAASGFTFNTYAMNWVRQAPGKGLEWVARIRSKGNNYATYYADSVKDRFTISRDDSKNTVYLQMNNLKTEDTAVYYCVRHENFGNSYVSWFAHWGQGTLVTVSS VL: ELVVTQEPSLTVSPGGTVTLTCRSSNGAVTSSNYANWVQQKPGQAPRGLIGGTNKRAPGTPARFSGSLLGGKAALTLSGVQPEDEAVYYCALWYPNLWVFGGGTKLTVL was 1.30

The binder listed as AC3418 (bispecific antibody, V domains shown) VH: EVQLLESGGGIVQPGGSLKLSCAASGFTFNTYAMNWVRQAPGKGLEWVARIRSKYNNYATYEADSVKDRFTISRDDSKNTVYLQMNNLKTEDTAVYYCVRHENFGNSYVSWFAHWGQGTLVTVSS VL: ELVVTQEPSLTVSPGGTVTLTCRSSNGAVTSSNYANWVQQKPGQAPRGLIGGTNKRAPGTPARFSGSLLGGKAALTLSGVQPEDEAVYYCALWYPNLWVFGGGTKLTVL shows log10 of Kd equal to 0.99

Sample AC3425 (bispecific antibody, V domains shown) VH: EVQLLESGGGIVQPGGSLKLSCAASGFTFNTYAMNWVRQAPGKGLEWVARIRSKYNNYATYYADSVKDRFTISRDDSKNTVDLQMNNLKTEDTAVYYCVRHENFGNSYVSWFAHWGQGTLVTVSS VL: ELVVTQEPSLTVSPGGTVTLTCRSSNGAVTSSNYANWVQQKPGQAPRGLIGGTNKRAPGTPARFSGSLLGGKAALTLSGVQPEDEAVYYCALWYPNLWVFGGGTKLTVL ; log10 of Kd observed: 0.99

So, AC3434 (bispecific antibody, V domains shown) VH: EVQLLESGGGIVQPGGSLKLSCAASGFTFNTYAMNWVRQAPGKGLEWVARIRSKYNNYATYYADSVKDRFTISRDDSKNTVYLQMNNLKTEDTAVYYCVRHENFGNSYVSWFAHWGQGTLVTVSS VL: ELVVTQEPSLTVSPGGTVTLTCRSSNGAVTSSNYANWVQQKPGQAPRGLIGGTNKRAPGTPARFSGSLLEGKAALTLSGVQPEDEAVYYCALWYPNLWVFGGGTKLTVL ? Its log10 of Kd was 0.69

get_value(item= AC3429 (bispecific antibody, V domains shown) VH: EVQLLESGGGIVQPGGSLKLSCAASGFTFNTYAMNWVRQAPGKGLEWVARIRSKYNNYATYYADSVKDRFTISRDDSKNTVYLQMNQLKTEDTAVYYCVRHENFGNSYVSWFAHWGQGTLVTVSS VL: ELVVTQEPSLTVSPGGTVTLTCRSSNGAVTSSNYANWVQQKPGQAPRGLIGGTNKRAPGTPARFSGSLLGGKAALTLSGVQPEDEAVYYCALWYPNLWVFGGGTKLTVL , readout=log10 of Kd) returns 0.85

Sample AC3396 (bispecific antibody, V domains shown) VH: EVQLLESGGGIVQPGGSLKLSCAASGFTFNTYAMNWVRQAPGKGLEWVARIRTKYNNYATYYADSVKDRFTISRDDSKNTVYLQMNNLKTEDTAVYYCVRHENFGNSYVSWFAHWGQGTLVTVSS VL: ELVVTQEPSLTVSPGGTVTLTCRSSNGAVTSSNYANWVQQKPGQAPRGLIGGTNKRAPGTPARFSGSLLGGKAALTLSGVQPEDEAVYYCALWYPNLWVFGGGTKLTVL ; log10 of Kd observed: 0.68

// log10 of Kd lookup, binder = AC3439 (bispecific antibody, V domains shown) VH: EVQLLESGGGIVQPGGSLKLSCAASGFTFNTYAMNWVRQAPGKGLEWVARIRSKYNNYATYYADSVKDRFTISRDDSKNTVYLQMNNLKTEDTAVYYCVRHENFGNSYVSWFAHWGQGTLVTVSS VL: ELVVTQEPSLTVSPGGTVTLTCRSSNGAVTSSNYANWVQQKPGQAPRGLIGGTNKRAPGTPARFSGSTLGGKAALTLSGVQPEDEAVYYCALWYPNLWVFGGGTKLTVL , result: 0.95

AC3406 (bispecific antibody, V domains shown) VH: EVQLLESGGGIVQPGGSLKLSCAASGFTFNTYAMNWVRQAPGKGLEWVARIRSKYENYATYYADSVKDRFTISRDDSKNTVYLQMNNLKTEDTAVYYCVRHENFGNSYVSWFAHWGQGTLVTVSS VL: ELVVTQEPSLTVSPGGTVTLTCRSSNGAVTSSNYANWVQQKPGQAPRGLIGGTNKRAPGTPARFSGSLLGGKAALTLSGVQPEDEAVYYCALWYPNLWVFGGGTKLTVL has a reported log10 of Kd of 2.76

# binder AC3371 (bispecific antibody, V domains shown) VH: EVQLLESGGGIVQPGGSLKLSCAASGFTFNTYAMNWVRQAPGKGLEWGARIRSKYNNYATYYADSVKDRFTISRDDSKNTVYLQMNNLKTEDTAVYYCVRHENFGNSYVSWFAHWGQGTLVTVSS VL: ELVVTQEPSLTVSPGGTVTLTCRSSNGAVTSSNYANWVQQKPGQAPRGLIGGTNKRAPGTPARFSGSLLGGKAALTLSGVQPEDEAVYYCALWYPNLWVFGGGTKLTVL ; its log10 of Kd = 1.85

Hello, the source for this data is patent US20240400696A1, in case you need it.
